STUDY SYSTEM: monoclonal antibody 12G6H5 (“Frida”)
TEST DESCRIPTION: inhibition ELISA FIG. 18c, high peptide, 2.5 ng Frida, coat p4073
MEASURED QUANTITY: ELISA signal with competitor
Numbers only.

Recorded results for 7 binders are shown here.
> print(dat)
                                     binder  quantitative.readout
1             CAAFAAHLLADFLQAAA [p4436 C-…]                  1.69
2             CFGFPSHIIIDWLQSLS [p4432 C-…]                 0.096
3             CAAFPAHLLADAAQALA [p4434 C-…]                  1.46
4             FGFPEHLLVDFLQSLSC [p1208 …-C]                 0.101
5             CAAAPAHLLVDAAQAAA [p4437 C-…]                  1.67
6  CFGFPEHLLVDFLQSLS [p4073 C-…, original CETP epitope]                 0.088
7             CAAFPAHAAADFLQALA [p4435 C-…]                  1.97

Shift focus to the following entry.
So, CFGFPSHLIIEWLQSLS [p4433 C-…] ? Its ELISA signal with competitor was 0.672
